Recorded pEC50 values for a group of compounds are listed next.
test: Inhibition of neurosphere formation of human BT142 cells by CCK8 assay; assay type: functional, cell-based
// pEC50 here means minus log10 of the molar concentration (mol/L)

Q: Which pEC50 is reported for this compound? COc1cccc(Cc2cc(C)cc(=O)n2O)c1
Result: 6.20

Q: Which pEC50 is reported for this compound? COc1ccc(-c2ccc(Cc3cc(C)cc(=O)n3O)cc2)cc1
Result: 6.59

Q: Which pEC50 is reported for this compound? Cc1cc(Cc2ccc(-c3ccc(O)cc3)cc2)n(O)c(=O)c1
Result: 6.16

Q: Which pEC50 is reported for this compound? Cc1cc(Cc2ccccc2)n(O)c(=O)c1
Result: 6.43

Q: Which pEC50 is reported for this compound? Cc1cc(Cc2cccc(O)c2)n(O)c(=O)c1
Result: 5.74
